Entries and their IC50 values follow.
Molecular target: RORγ ligand binding domain (LBD) (Homo sapiens, UniProt P51449)
Sequence (P51449 269-508 limits assumed): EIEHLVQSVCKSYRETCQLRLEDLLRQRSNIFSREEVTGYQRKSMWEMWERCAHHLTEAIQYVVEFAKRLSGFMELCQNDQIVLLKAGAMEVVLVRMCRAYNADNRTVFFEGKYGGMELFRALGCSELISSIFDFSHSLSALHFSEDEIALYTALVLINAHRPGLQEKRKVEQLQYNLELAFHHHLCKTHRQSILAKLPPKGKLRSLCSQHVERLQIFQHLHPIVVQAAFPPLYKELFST
Assay: TR-FRET Activity Assay (RORγ-LBD / coactivator peptide interaction)
Conditions: Table 2; read-out: RORγ activity in the TR-FRET Activity Assay (IC50 FRET), Group
Description: This method measures the ability of putative ligands to modulate the interaction between the purified bacterial expressed RORγ ligand binding domain (LBD) and synthetic N-terminally biotinylated peptides which are derived from nuclear receptor coactivator proteins such as but not limited to SRC1 (NcoA1), SRC2 (NcoA2, TIF2), SRC3 (NcoA3), PGC1α, PGC1β, CBP, GRIP1, TRAP220, RIP140. […] This is identical to the “four parameter logistic equation”. The IC50 values are calculated using this equation.

Take a look at these entries with their results.
[
  {
    "Compound": "Cc1nn(C)c(Cl)c1S(=O)(=O)N1Cc2ccccc2COCC1Cc1ccccc1 (centres unmarked) [1/32]",
    "IC50": "> 2000 nM"
  },
  {
    "Compound": "O=S(=O)(c1cccc2cccnc12)N1Cc2ccccc2COC[C@H]1CN1CCOCC1 [17/4]",
    "IC50": "< 500 nM"
  },
  {
    "Compound": "COc1ccccc1S(=O)(=O)N1Cc2ccccc2COCC1Cc1ccc(F)cc1 (centres unmarked) [1/37]",
    "IC50": "500 to 2000 nM"
  },
  {
    "Compound": "Cc1nc(S(=O)(=O)N2Cc3ccccc3COCC2Cc2ccccc2)cn1C (centres unmarked) [1/30]",
    "IC50": "> 2000 nM"
  },
  {
    "Compound": "CN1Cc2ccccc2CN(S(=O)(=O)c2cccc3cccnc23)[C@H](Cc2ccccc2)C1=O [compound 9]",
    "IC50": "> 2000 nM"
  },
  {
    "Compound": "COc1ccccc1S(=O)(=O)N1Cc2ccccc2COCC1CC(C)C (centres unmarked) [1/41]",
    "IC50": "500 to 2000 nM"
  },
  {
    "Compound": "O=S(=O)(c1cccc2nonc12)N1Cc2ccccc2COCC1Cc1ccccc1 (centres unmarked) [1/10]",
    "IC50": "< 500 nM"
  },
  {
    "Compound": "CC(C)(C)OC[C@@H]1COCc2ncccc2CN1S(=O)(=O)c1cccc2c1OCC2 [6/5]",
    "IC50": "500 to 2000 nM"
  }
]

stdin: Consider the compound Cc1ccc(Cl)cc1S(=O)(=O)N1Cc2ccccc2COCC1Cc1ccccc1 (centres unmarked) [1/20] . State its measured IC50.
stdout: 500 to 2000 nM

stdin: Consider the compound COc1ccccc1S(=O)(=O)N1Cc2cc(F)ccc2COCC1Cc1ccccc1 (centres unmarked) [1/33] . State its measured IC50.
stdout: > 2000 nM

stdin: Consider the compound CC(C)(C)OC[C@@H]1COCc2ncccc2CN1S(=O)(=O)c1c(F)cccc1F [6/4] . State its measured IC50.
stdout: > 2000 nM

stdin: Consider the compound COc1ccccc1S(=O)(=O)N1Cc2c(cccc2OC)COCC1Cc1ccccc1 (centres unmarked) [5/1] . State its measured IC50.
stdout: > 2000 nM

stdin: Consider the compound O=S(=O)(c1cccc2cccnc12)N1Cc2ccccc2CCCC1Cc1ccccc1 (centres unmarked) [compound 30] . State its measured IC50.
stdout: 500 to 2000 nM

stdin: Consider the compound COc1ccccc1S(=O)(=O)N1Cc2ccccc2COCC1Cc1cccc(C#N)c1 (centres unmarked) [5/3] . State its measured IC50.
stdout: < 500 nM

stdin: Consider the compound O=S(=O)(c1ccccc1OC(F)(F)F)N1Cc2nnc(C(F)(F)F)n2CCC[C@H]1Cc1ccccc1 [Preparative Example 31] . State its measured IC50.
stdout: > 2000 nM

stdin: Consider the compound COc1cccc2c1COCC(Cc1ccccc1)N(S(=O)(=O)c1cccc3cccnc13)C2 (centres unmarked) [1/40] . State its measured IC50.
stdout: < 500 nM

###

target: RORγ ligand binding domain (LBD) (Homo sapiens); test: TR-FRET Activity Assay (RORγ-LBD / coactivator peptide interaction); conditions: Table 2; read-out: RORγ activity in the TR-FRET Activity Assay (IC50 FRET), Group
Quantity measured: IC50

stdin: Report IC50 from RORγ ligand binding domain (LBD) (Homo sapiens) testing of O=S(=O)(c1cc(F)ccc1N1CCOCC1)N1Cc2ccccc2COCC1Cc1ccccc1 (stereo not drawn) [compound 12]
stdout: > 2000 nM

stdin: Report IC50 from RORγ ligand binding domain (LBD) (Homo sapiens) testing of O=S(=O)(c1c(F)cccc1F)N1Cc2ccccc2COCC1Cc1ccccc1 (stereo not drawn) [1/22]
stdout: < 500 nM

stdin: Report IC50 from RORγ ligand binding domain (LBD) (Homo sapiens) testing of COc1ccccc1S(=O)(=O)N1Cc2ccccc2CN(C)CC1Cc1ccccc1 (stereo not drawn) [Preparative Example 2]
stdout: 500 to 2000 nM

stdin: Report IC50 from RORγ ligand binding domain (LBD) (Homo sapiens) testing of C=CC[C@@H]1COCc2ccccc2CN1S(=O)(=O)c1cccc2cccnc12 [Preparative Example 18]
stdout: 500 to 2000 nM

stdin: Report IC50 from RORγ ligand binding domain (LBD) (Homo sapiens) testing of O=S(=O)(c1cc(Cl)sc1Cl)N1Cc2ccccc2COCC1Cc1ccccc1 (stereo not drawn) [1/27]
stdout: > 2000 nM

stdin: Report IC50 from RORγ ligand binding domain (LBD) (Homo sapiens) testing of COc1ccccc1S(=O)(=O)N1Cc2ccccc2COCC1Cc1ccc(Br)cc1 (stereo not drawn) [compound 3]
stdout: > 2000 nM

stdin: Report IC50 from RORγ ligand binding domain (LBD) (Homo sapiens) testing of COc1ccccc1S(=O)(=O)N1Cc2ccccc2COCC1Cc1cccc(Br)c1 (stereo not drawn) [3/2]
stdout: < 500 nM

stdin: Report IC50 from RORγ ligand binding domain (LBD) (Homo sapiens) testing of COc1cccc(-c2cccc(CC3COCc4ccccc4CN3S(=O)(=O)c3ccccc3OC)c2)n1 (stereo not drawn) [5/6]
stdout: > 2000 nM

stdin: Report IC50 from RORγ ligand binding domain (LBD) (Homo sapiens) testing of Cc1c(F)cccc1S(=O)(=O)N1Cc2ccccc2COCC1Cc1ccccc1 (stereo not drawn) [1/17]
stdout: 500 to 2000 nM

###

Entries and their IC50 values follow.
Target: RORγ ligand binding domain (LBD) (Homo sapiens, UniProt P51449)
Sequence (P51449 269-508 limits assumed): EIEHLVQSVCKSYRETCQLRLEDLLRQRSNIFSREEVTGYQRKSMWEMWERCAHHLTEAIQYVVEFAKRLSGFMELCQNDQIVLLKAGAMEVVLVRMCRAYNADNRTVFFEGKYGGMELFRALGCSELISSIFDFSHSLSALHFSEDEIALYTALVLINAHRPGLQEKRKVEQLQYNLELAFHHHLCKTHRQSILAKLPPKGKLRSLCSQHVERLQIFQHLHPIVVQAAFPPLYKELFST
Assay: TR-FRET Activity Assay (RORγ-LBD / coactivator peptide interaction)
Details: Table 2; read-out: RORγ activity in the TR-FRET Activity Assay (IC50 FRET), Group

Take a look at these entries with their results.
[
  {
    "Compound": "COc1ccccc1S(=O)(=O)N1Cc2c(Br)cccc2COCC1Cc1ccccc1 (centres unmarked) [3/1]",
    "Result": "> 2 µM"
  },
  {
    "Compound": "CN(C)C(=O)C[C@@H]1COCc2ccccc2CN1S(=O)(=O)c1cccc2cccnc12 [Preparative Example 26]",
    "Result": "> 2 µM"
  }
]

stdin: Report IC50 from RORγ ligand binding domain (LBD) (Homo sapiens, UniProt P51449) testing of Cc1ccc2nsnc2c1S(=O)(=O)N1Cc2ccccc2COCC1Cc1ccccc1 (centres unmarked) [1/13]
stdout: 0.5 to 2 µM

stdin: Report IC50 from RORγ ligand binding domain (LBD) (Homo sapiens, UniProt P51449) testing of O=S(=O)(c1c(Cl)cccc1Cl)N1Cc2ccccc2COCC1Cc1ccccc1 (centres unmarked) [1/23]
stdout: 0.5 to 2 µM

stdin: Report IC50 from RORγ ligand binding domain (LBD) (Homo sapiens, UniProt P51449) testing of O=S(=O)(c1cccc2cccnc12)N1Cc2ccccc2COC[C@H]1Cc1cccnc1 [compound 7]
stdout: 0.5 to 2 µM

stdin: Report IC50 from RORγ ligand binding domain (LBD) (Homo sapiens, UniProt P51449) testing of COc1ccccc1S(=O)(=O)N1Cc2ccccc2OCCC1Cc1ccccc1 (centres unmarked) [compound 4]
stdout: 0.5 to 2 µM

stdin: Report IC50 from RORγ ligand binding domain (LBD) (Homo sapiens, UniProt P51449) testing of Cc1nnc(C[C@@H]2COCc3ccccc3CN2S(=O)(=O)c2cccc3cccnc23)o1 [Preparative Example 27]
stdout: > 2 µM

stdin: Report IC50 from RORγ ligand binding domain (LBD) (Homo sapiens, UniProt P51449) testing of O=S(=O)(c1cc(F)ccc1OCCN1CCOCC1)N1Cc2ccccc2COCC1Cc1ccccc1 (centres unmarked) [Preparative Example 11]
stdout: > 2 µM

From: patent US8940722B2
